// data source = paper PMC2885425

target_system: β-amyloid polypeptide (Aβ1–42) (Homo sapiens)
Construct: Aβ1–42 (synthetic, early oligomeric assemblies); NMR with Aβ12–28
Sequence (P05067 672-713): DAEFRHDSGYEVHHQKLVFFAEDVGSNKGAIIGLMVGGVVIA
test_details: fluorescence anisotropy titration (Aβ[…] early assemblies); supported by 1H-NMR shift perturbation with Aβ[…] and ThT fibril inhibition (IC50 […])
pKd: −log10 of the molar value.

- compound: "O=C1C=C(N[C@@H](Cc2c[nH]c3ccccc23)C(=O)O)C(=O)c2ccccc21 [IL, 1,4-naphthoquinon-2-yl-L-tryptophan]"
  pKd: "~7.05"
